target: hERG channel (Homo sapiens, UniProt Q12809); construct: expressed in transfected cells; experiment: Assay B: Determination of hERG-inhibition (patch-clamp); assay type: cell-based; details: compounds of the present invention; patch-clamp per Rast and Guth 2014
Sequence (Q12809 whole entry): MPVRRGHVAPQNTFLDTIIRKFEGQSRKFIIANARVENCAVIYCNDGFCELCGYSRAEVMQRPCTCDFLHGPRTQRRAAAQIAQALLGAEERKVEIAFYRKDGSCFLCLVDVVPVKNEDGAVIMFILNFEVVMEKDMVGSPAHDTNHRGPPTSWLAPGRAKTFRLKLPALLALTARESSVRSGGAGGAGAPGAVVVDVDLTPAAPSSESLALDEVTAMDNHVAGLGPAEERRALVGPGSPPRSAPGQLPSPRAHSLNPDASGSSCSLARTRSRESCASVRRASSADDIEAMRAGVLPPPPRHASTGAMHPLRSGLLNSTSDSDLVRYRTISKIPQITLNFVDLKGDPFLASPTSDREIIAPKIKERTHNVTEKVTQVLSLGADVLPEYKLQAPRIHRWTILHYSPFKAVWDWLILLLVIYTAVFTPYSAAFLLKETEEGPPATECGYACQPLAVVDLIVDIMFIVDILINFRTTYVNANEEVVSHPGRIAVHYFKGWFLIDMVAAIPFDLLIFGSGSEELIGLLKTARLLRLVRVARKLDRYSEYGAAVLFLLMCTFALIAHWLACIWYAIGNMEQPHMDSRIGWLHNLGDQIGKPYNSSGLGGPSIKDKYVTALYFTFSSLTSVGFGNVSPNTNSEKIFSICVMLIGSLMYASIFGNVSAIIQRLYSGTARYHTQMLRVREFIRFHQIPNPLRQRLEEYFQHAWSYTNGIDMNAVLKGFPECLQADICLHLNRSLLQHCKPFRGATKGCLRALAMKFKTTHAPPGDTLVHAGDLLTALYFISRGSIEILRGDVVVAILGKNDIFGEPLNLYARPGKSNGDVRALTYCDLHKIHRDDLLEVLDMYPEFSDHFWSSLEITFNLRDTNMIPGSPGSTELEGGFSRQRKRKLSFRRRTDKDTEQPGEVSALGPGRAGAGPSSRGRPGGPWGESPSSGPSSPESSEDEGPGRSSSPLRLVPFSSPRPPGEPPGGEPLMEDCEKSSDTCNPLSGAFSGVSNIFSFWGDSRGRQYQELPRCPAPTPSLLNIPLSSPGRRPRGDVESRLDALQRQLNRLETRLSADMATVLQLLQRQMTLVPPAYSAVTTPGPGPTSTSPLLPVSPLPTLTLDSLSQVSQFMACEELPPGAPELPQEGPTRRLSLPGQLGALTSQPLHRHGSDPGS
Each record here notes measured IC50.

# example entries with known answers
{"columns": ["compound", "target.under.test", "IC50"],
 "data": [
  ["Cn1c(=O)n(CCCO)c(=O)c2c1nc(-c1nccnc1OCC1CC1)n2Cc1ccc(Cl)cc1", "hERG channel (Homo sapiens, UniProt Q12809)", "> 10 µM"],
  ["CC(C)n1c(=O)n(CCCO)c(=O)c2c1nc(-c1cccnc1OC[C@H]1CC1(F)F)n2Cc1ccccc1", "hERG channel (Homo sapiens, UniProt Q12809)", "> 10 µM"],
  ["CC(C)n1c(=O)n(CCCO)c(=O)c2c1nc(-c1cccnc1OCC1CC1)n2Cc1ccc(F)cc1", "hERG channel (Homo sapiens, UniProt Q12809)", "> 10 µM"],
  ["CC(C)n1c(=O)n(CCCO)c(=O)c2c1nc(-c1cc(F)cnc1OCC1CC1)n2Cc1ccccc1", "hERG channel (Homo sapiens, UniProt Q12809)", "> 10 µM"],
  ["CC(C)n1c(=O)n(CCCO)c(=O)c2c1nc(-c1nccnc1OCC1CC1)n2Cc1ccccc1", "hERG channel (Homo sapiens, UniProt Q12809)", "> 10 µM"]
]}

For CC(C)n1c(=O)n(CCCO)c(=O)c2c1nc(-c1ccc(F)nc1OCC1CC1)n2Cc1ccc(F)cc1 , what is its reported IC50?
> 10 µM

* * *

molecular target: hERG channel (Homo sapiens); construct: expressed in transfected cells; test: Assay B: Determination of hERG-inhibition (patch-clamp); type: cell-based; conditions: compounds of the present invention; patch-clamp per Rast and Guth 2014
pIC50: −log10 of the molar value.
assay.metric: pIC50

These recorded examples may help you get a feel for the data.
{"columns": ["compound", "reported.value"],
 "data": [
  ["CC(C)n1c(=O)n(CC[C@@H](C)O)c(=O)c2c1nc(-c1cccnc1OCC1CC1)n2Cc1ccc(F)cc1", "< 5.00"],
  ["CC(C)n1c(=O)n(CCCO)c(=O)c2c1nc(-c1cccnc1OCC1CC1)n2Cc1ccccc1", "< 5.00"],
  ["CC(C)n1c(=O)n(CCCO)c(=O)c2c1nc(-c1cccnc1OC[C@H]1CC1(F)F)n2Cc1ccc(F)cc1 (single isomer, unassigned)", "< 5.00"],
  ["CC(C)n1c(=O)n(CCCO)c(=O)c2c1nc(-c1cccnc1OC[C@@H]1CC1(F)F)n2Cc1ccc(F)cc1 (single isomer, unassigned)", "< 5.00"],
  ["CCn1c(=O)n(CCCO)c(=O)c2c1nc(-c1nccnc1OCC1CC1)n2Cc1ccccc1", "< 5.00"]
]}

Give the measured pIC50 of Cc1ccc(Cn2c(-c3cccnc3OCC3CC3)nc3c2c(=O)n(CCCO)c(=O)n3C(C)C)cc1 .
< 5.00

// pIC50 lookup, key: CC(C)n1c(=O)n(CCCO)c(=O)c2c1nc(-c1cccnc1OCC1CC1)n2Cc1ccc(Cl)cc1
< 5.00

Entry CC(C)n1c(=O)n(CCCO)c(=O)c2c1nc(-c1cccnc1OCC1CC1)n2Cc1ccc(F)c(F)c1 : reported pIC50 = ?
< 5.00

Would you kindly share the measured pIC50 for Cc1ccc(-c2nc3c(c(=O)n(CCCO)c(=O)n3C(C)C)n2Cc2ccccc2)c(OCC2CC2)n1 ?
< 5.00

Any idea what its pIC50 is? The compound is Cc1nc(OCC2CC2)c(-c2nc3c(c(=O)n(CCCO)c(=O)n3C(C)C)n2Cc2ccccc2)cc1F
5.24

// lookup pIC50 for CC(C)n1c(=O)n(CC[C@@H](C)O)c(=O)c2c1nc(-c1cccnc1OCC1CC1)n2Cc1ccc(Cl)cc1
5.12

I would be grateful if you could share the reported pIC50 for CC(C)n1c(=O)n(CCCO)c(=O)c2c1nc(-c1cccnc1OCC1CC1)n2Cc1ccc(C(F)(F)F)cc1 .
5.08

What value of measured pIC50 is listed for CC(C)n1c(=O)n(CCCO)c(=O)c2c1nc(-c1cccnc1OC[C@@H]1CC1(F)F)n2Cc1ccccc1 ?
< 5.00

What does the data say about its pIC50? Entry: CC(C)n1c(=O)n(CCCO)c(=O)c2c1nc(-c1cc(F)cnc1OCC1CC1)n2Cc1ccc(F)cc1
< 5.00

Can you look up the measured pIC50 of CC(C)n1c(=O)n(CCCO)c(=O)c2c1nc(-c1cccnc1OCC1CC1)n2Cc1cc(F)cc(F)c1 for me?
< 5.00

Find the recorded pIC50 belonging to CC(C)n1c(=O)n(CCCO)c(=O)c2c1nc(-c1ccc(F)nc1OCC1CC1)n2Cc1ccccc1 and report it.
< 5.00

Consider the compound CC(C)n1c(=O)n(CC[C@@H](C)O)c(=O)c2c1nc(-c1cccnc1OCC1CC1)n2Cc1ccccc1 and give its measured pIC50.
< 5.00

Entry under review: CC(C)n1c(=O)n(CCCO)c(=O)c2c1nc(-c1cccnc1OCC1CC1)n2Cc1ccc(Cl)cn1 . Reported pIC50?
< 5.00

Could you tell me which pIC50 is on file for Cc1nc(OCC2CC2)c(-c2nc3c(c(=O)n(CCCO)c(=O)n3C(C)C)n2Cc2ccc(F)cc2)cc1F ?
5.24
